System Tested: T1, human GPC3 on cells (human, UniProt P51654 25-554)
T1 construct: whole, on cells; over-expressed on CHOK1 cells or endogenous on HEPG2, Hep3B and Huh-7 hepatocellular carcinoma cells; the cell line is named under assay; also called GPC3-CHOK1 cells; human GPC3 over-expressed CHOK1 cells
Measurement Protocol: FACS, GPC3-CHOK1 cells
Measurement Type: EC50 (µg/mL)
I only need the number, in µg/mL, no unit after it.

Consider the following illustrative entries.
52H5D3B8-6#-VH4+VL1 (antibody, V domains shown, humanized) VH: QVQLVQSGAEVKKPGASVKVSCKALGYTFTDYEMHWVKQAPGQGLEWIGAIHPGSGGTAYNQKFKGRATMTADKFTSTVYMELSSLRSEDTAVYYCTRYYSYAYWGQGTLVTVSS VL: DIVMTQTPLSLSVTPGQPASISCRSSQSLVHSNGNTYLQWYLQKPGQSPQLLIYKVSNRFSGVPDRFSGSGSGTDFTLKISRVEAEDVGVYYCFQSIHVPYTFGGGTKLEIK: 0.0387
52H5D3B8-6#-VH4+VL3 (antibody, V domains shown, humanized) VH: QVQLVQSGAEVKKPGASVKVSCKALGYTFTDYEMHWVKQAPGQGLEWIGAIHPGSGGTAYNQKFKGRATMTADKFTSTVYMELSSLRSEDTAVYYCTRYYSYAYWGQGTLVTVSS VL: DIVMTQTPLSLSVTPGQPASISCRSSQSLVHSNGNTYLQWYLQKPGQSPKLLIYKVSNRFSGVPDRFSGSGSGTDFTLKISRVEAEDVGVYYCFQSIHVPYTFGGGTKLEIK: 0.0379

Alright, here's another binder for you.
State its EC50: 52H5D3B8-6#-VH4+VL2 (antibody, V domains shown, humanized) VH: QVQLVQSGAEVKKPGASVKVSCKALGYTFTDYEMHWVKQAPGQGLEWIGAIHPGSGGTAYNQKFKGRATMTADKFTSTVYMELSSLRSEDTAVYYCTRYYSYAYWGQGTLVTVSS VL: DIVMTQTPLSLSVTPGQPASISCRSSQSLVHSNGNTYLQWYLQKPGQSPQLLIYKVSNRFSGVPDRFSGSGSGTDFTLKISRVEAEDVGVYFCFQSIHVPYTFGGGTKLEIK
0.0425
